- Test system: MDA-MB-231
- assay.procedure: Synergistic antiproliferative activity against human MDA-MB-231 cells assessed as inhibition of cell growth at 10 uM incubated for 72 hrs in presence of Sorafenib by MTT assay
- Type: functional, cell-based
- condition.info: MDA-MB-231, 72 h
measured.metric: pIC50
In textbook form, pIC50 equals minus log to base ten of the concentration in mol/L.

-- ask Item Cc1cc(=O)n(-c2ccc(C(F)(F)F)cc2)nc1C(=O)Nc1cccc(C(=O)N(C)C)c1O with MDA-MB-231 - pIC50?
-- reply 5.23

* * *

- assayed.target: C-X-C chemokine receptor type 2 (Homo sapiens) (UniProt P25025)
- Sequence (P25025 whole entry): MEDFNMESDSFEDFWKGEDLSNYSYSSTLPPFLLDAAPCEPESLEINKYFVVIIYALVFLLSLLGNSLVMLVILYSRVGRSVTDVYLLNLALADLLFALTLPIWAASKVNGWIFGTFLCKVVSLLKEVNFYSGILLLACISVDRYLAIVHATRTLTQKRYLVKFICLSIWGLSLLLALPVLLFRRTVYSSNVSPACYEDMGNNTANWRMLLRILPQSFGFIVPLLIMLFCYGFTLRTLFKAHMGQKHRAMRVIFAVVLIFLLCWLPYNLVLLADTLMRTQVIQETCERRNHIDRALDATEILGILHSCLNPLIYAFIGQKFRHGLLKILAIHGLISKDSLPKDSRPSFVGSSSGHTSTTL
- assay.procedure: Antagonist activity at CXCR2 (unknown origin) at 10 uM by calcium flux assay relative to control
- Type: functional
measured.metric: inhibition

Some solved cases for reference:
Cc1ccc(-n2nc(C(=O)Nc3cccc(C(=O)N(C)C)c3O)c(C)cc2=O)cc1: 26.9%
CN(C)C(=O)c1cccc(NC(=O)c2nn(-c3ccc(C(F)(F)F)cc3)c(=O)n2C)c1O: 21.6%
COc1ccc(-n2nc(C(=O)Nc3cccc(C(=O)N(C)C)c3O)c(C)cc2=O)cc1: 34.6%

-- ask Identify the measured inhibition of CN(C)C(=O)c1cccc(NC(=O)c2nn(-c3ccccc3)c(=O)n2C)c1O for C-X-C chemokine receptor type 2 (Homo sapiens) (UniProt P25025).
-- reply 18.6%

-- ask Form field - read-out: inhibition; system: C-X-C chemokine receptor type 2 (Homo sapiens) (UniProt P25025); submitted item: CN(C)C(=O)c1cccc(NC(=O)c2nn(-c3ccc(Cl)c(Cl)c3)c(=O)n2C)c1O
-- reply 32.3%

-- ask For the record Cc1cc(=O)n(-c2ccc(Cl)cc2Cl)nc1C(=O)Nc1cccc(C(=O)N(C)C)c1O , what value of inhibition is listed for C-X-C chemokine receptor type 2 (Homo sapiens) (UniProt P25025)?
-- reply -8.2%

-- ask # get_value(readout= inhibition, system= C-X-C chemokine receptor type 2 (Homo sapiens) (UniProt P25025)) for Cc1cccc(-n2nc(C(=O)Nc3cccc(C(=O)N(C)C)c3O)c(C)cc2=O)c1
-- reply 11.2%

-- ask Record Cc1ccccc1-n1nc(C(=O)Nc2cccc(C(=O)N(C)C)c2O)c(C)cc1=O : what is its inhibition with C-X-C chemokine receptor type 2 (Homo sapiens) (UniProt P25025)?
-- reply 6.1%
